- Experimental Details: Clearance in Sprague-Dawley rat at 0.5 mg/kg, iv
- Type: ADME, organism-based
- Set-up: dose 0.5 mg/kg, route intravenous
- Assay Context: in vivo
Property Measured: clearance (mL/min/kg)
Unit mL/min/kg implied. Number only.

Problem: For the compound O=C(Nc1ccc(-n2ccccc2=O)cn1)[C@H]1C[C@](O)(c2ccc(F)cc2F)CN1C(=O)Nc1ccc(Cl)cc1 , give its measured clearance value.
Solution: 9.5

---

- Experimental Details: Absolute oral bioavailability in Beagle dog at 3 mg/kg
- Format: ADME, organism-based, Canis lupus familiaris
- Assay Context: in vivo
Property Measured: bioavailability (%)
Unit % implied. Number only.

Problem: For the molecule O=C(Nc1ccc(-n2ccccc2=O)cn1)[C@H]1C[C@](O)(c2ccc(F)cc2F)CN1C(=O)Nc1ccc(Cl)cc1 , give its measured bioavailability value.
Solution: 24

---

- Experimental Details: Tmax in Sprague-Dawley rat at 3 mg/kg, po
- Type: ADME, organism-based
- Design: dose 3 mg/kg, route oral
- Assay Context: in vivo
Property Measured: Tmax (h)
Unit h implied. Number only.

Problem: For the compound O=C(Nc1ccc(-n2ccccc2=O)cn1)[C@H]1C[C@](O)(c2ccc(F)cc2F)CN1C(=O)Nc1ccc(Cl)cc1 , give its measured Tmax value.
Solution: 1.7

---

- Experimental Details: Half life in iv dosed dog by singleton studies
- Format: ADME, organism-based, Canis lupus familiaris
- Assay Context: in vivo
Property Measured: half-life
Your reply should be a number followed by the unit it is expressed in.

Problem: For the compound CO[C@@H]1C[C@H](C(=O)Nc2ccc(-n3ccccc3=O)cc2F)N(C(=O)Nc2ccc(Cl)cc2)C1 [ERIBAXABAN] , give its measured half-life value.
Solution: 4.9 h

---

Readings of Vd for the listed compounds
- Experimental Details: Volume of distribution at steady state in iv dosed rat by cassette studies
- Format: ADME, organism-based
- Assay Context: in vivo, read-out: Vdss
Unit L/kg implied. Number only.

Record excerpt, results attached:
{"Smiles Record": "Cc1cccc([C@@]2(O)C[C@H](C(=O)Nc3ccc(-n4ccccc4=O)cn3)N(C(=O)Nc3ccc(Cl)cc3)C2)c1", "Vd / L/kg": 0.438}
{"Smiles Record": "Cc1ccc([C@@]2(O)C[C@H](C(=O)Nc3ccc(-n4ccccc4=O)cn3)N(C(=O)Nc3ccc(Cl)cc3)C2)cc1", "Vd / L/kg": 1.58}
{"Smiles Record": "O=C(Nc1ccc(-n2ccccc2=O)cn1)[C@H]1C[C@](O)(c2ccc(F)c(F)c2)CN1C(=O)Nc1ccc(Cl)cc1", "Vd / L/kg": 1.6}
{"Smiles Record": "O=C(Nc1ccc(-n2ccccc2=O)cn1)[C@H]1C[C@](O)(c2ccccc2Cl)CN1C(=O)Nc1ccc(Cl)cc1", "Vd / L/kg": 0.923}
{"Smiles Record": "O=C(Nc1ccc(-n2ccccc2=O)cn1)[C@H]1C[C@](O)(c2ccccc2C(F)(F)F)CN1C(=O)Nc1ccc(Cl)cc1", "Vd / L/kg": 0.393}

Problem: For the compound O=C(Nc1ccc(-n2ccccc2=O)cn1)[C@H]1C[C@](O)(c2ccc(F)cc2F)CN1C(=O)Nc1ccc(Cl)cc1 , give its measured Vd value.
Solution: 1.81

Problem: For the compound O=C(Nc1ccc(-n2ccccc2=O)cn1)[C@H]1C[C@](O)(c2ccc(F)cc2)CN1C(=O)Nc1ccc(Cl)cc1 , give its measured Vd value.
Solution: 1.97

Problem: For the compound Cc1ccccc1[C@@]1(O)C[C@H](C(=O)Nc2ccc(-n3ccccc3=O)cn2)N(C(=O)Nc2ccc(Cl)cc2)C1 , give its measured Vd value.
Solution: 0.468

---

- Experimental Details: Half life in iv dosed rat by cassette studies
- Format: ADME, organism-based
- Assay Context: in vivo
Each record is given t if its reported half-life is strictly below 2 h. Records at or above 2 h are given f.

{"Smiles Record": "O=C(Nc1ccc(-n2ccccc2=O)cn1)[C@H]1C[C@](O)(c2ccc(F)c(F)c2)CN1C(=O)Nc1ccc(Cl)cc1", "Class Assignment": "f"}
{"Smiles Record": "Cc1cccn(-c2ccc(NC(=O)[C@H]3C[C@@](C)(O)CN3C(=O)Nc3ccc(Cl)cc3)c(F)c2)c1=O", "Class Assignment": "t"}

Problem: For O=C(Nc1ccc(-n2ccccc2=O)cn1)[C@H]1C[C@](O)(c2ccc(F)cc2)CN1C(=O)Nc1ccc(Cl)cc1 , is the recorded half-life below the cut-off of 2 h?
Solution: t

Problem: For O=C(Nc1ccc(-n2ccccc2=O)cn1)[C@H]1C[C@](O)(c2ccc(F)cc2F)CN1C(=O)Nc1ccc(Cl)cc1 , is the recorded half-life below the cut-off of 2 h?
Solution: f

---

- Experimental Details: Cmax in Beagle dog at 3 mg/kg, po
- Assay type: ADME, organism-based, Canis lupus familiaris
- Parameters: dose 3 mg/kg, route oral
- Assay Context: in vivo
Property Measured: Cmax
Your reply should be a number followed by the unit it is expressed in.

Problem: For the molecule O=C(Nc1ccc(-n2ccccc2=O)cn1)[C@H]1C[C@](O)(c2ccc(F)cc2F)CN1C(=O)Nc1ccc(Cl)cc1 , give its measured Cmax value.
Solution: 397 ng/mL

---

- Experimental Details: Clearance in Beagle dog at 0.5 mg/kg, iv
- Assay type: ADME, organism-based, Canis lupus familiaris
- Set-up: dose 0.5 mg/kg, route intravenous
- Assay Context: in vivo
Property Measured: clearance (mL/min/kg)
Unit mL/min/kg implied. Number only.

Problem: For the compound O=C(Nc1ccc(-n2ccccc2=O)cn1)[C@H]1C[C@](O)(c2ccc(F)cc2F)CN1C(=O)Nc1ccc(Cl)cc1 , give its measured clearance value.
Solution: 2.1

---

- Experimental Details: Half life in Beagle dog at 0.5 mg/kg, iv
- Assay type: ADME, organism-based, Canis lupus familiaris
- Design: dose 0.5 mg/kg, route intravenous
- Assay Context: in vivo
Property Measured: half-life (h)
Unit h implied. Number only.

Problem: For the molecule O=C(Nc1ccc(-n2ccccc2=O)cn1)[C@H]1C[C@](O)(c2ccc(F)cc2F)CN1C(=O)Nc1ccc(Cl)cc1 , give its measured half-life value.
Solution: 12.6

---

- Experimental Details: Half life in iv dosed rat by cassette studies
- Format: ADME, organism-based
- Assay Context: in vivo
Each record is given true if its reported half-life is strictly below 2 h. Records at or above 2 h are given false.

{"Smiles Record": "CCO[C@]1(CC)C[C@H](C(=O)Nc2ccc(-n3ccccc3=O)cc2F)N(C(=O)Nc2ccc(Cl)cc2)C1", "Class Assignment": "true"}
{"Smiles Record": "Cc1ccc([C@@]2(O)C[C@H](C(=O)Nc3ccc(-n4ccccc4=O)cn3)N(C(=O)Nc3ccc(Cl)cc3)C2)cc1", "Class Assignment": "true"}
{"Smiles Record": "CO[C@@H]1C[C@H](C(=O)Nc2ccc(-n3ccccc3=O)cc2F)N(C(=O)Nc2ccc(Cl)cc2)C1", "Class Assignment": "false"}

Problem: For CC[C@@]1(O)C[C@H](C(=O)Nc2ccc(-n3cccc(C)c3=O)cc2F)N(C(=O)Nc2ccc(Cl)cc2)C1 , is the recorded half-life below the cut-off of 2 h?
Solution: false

Problem: For Cc1cccc([C@@]2(O)C[C@H](C(=O)Nc3ccc(-n4ccccc4=O)cn3)N(C(=O)Nc3ccc(Cl)cc3)C2)c1 , is the recorded half-life below the cut-off of 2 h?
Solution: true

Problem: For O=C(Nc1ccc(-n2ccccc2=O)cn1)[C@H]1C[C@](O)(c2ccccc2C(F)(F)F)CN1C(=O)Nc1ccc(Cl)cc1 , is the recorded half-life below the cut-off of 2 h?
Solution: true

Problem: For CC[C@@]1(OC)C[C@H](C(=O)Nc2ccc(-n3ccccc3=O)cc2F)N(C(=O)Nc2ccc(Cl)cc2)C1 , is the recorded half-life below the cut-off of 2 h?
Solution: true

---

- Experimental Details: AUC (infinity) in Beagle dog at 3 mg/kg, po
- Type: ADME, organism-based, Canis lupus familiaris
- Set-up: time infinity, dose 3 mg/kg, route oral
- Assay Context: plasma
Property Measured: AUC(0-inf) (ng·h/mL)
Unit ng·h/mL implied. Number only.

Problem: For the compound O=C(Nc1ccc(-n2ccccc2=O)cn1)[C@H]1C[C@](O)(c2ccc(F)cc2F)CN1C(=O)Nc1ccc(Cl)cc1 , give its measured AUC(0-inf) value.
Solution: 6450

---

- Experimental Details: AUC (infinity) in Sprague-Dawley rat at 3 mg/kg, po
- Format: ADME, organism-based
- Set-up: dose 3 mg/kg, route oral, time infinity
- Assay Context: plasma
Property Measured: AUC(0-inf) (ng·h/mL)
Unit ng·h/mL implied. Number only.

Problem: For the compound O=C(Nc1ccc(-n2ccccc2=O)cn1)[C@H]1C[C@](O)(c2ccc(F)cc2F)CN1C(=O)Nc1ccc(Cl)cc1 , give its measured AUC(0-inf) value.
Solution: 1010

---

- Experimental Details: Half life in iv dosed dog by cassette studies
- Type: ADME, organism-based, Canis lupus familiaris
- Assay Context: in vivo
Property Measured: half-life (h)
Unit h implied. Number only.

Record excerpt, results attached:
{"Smiles Record": "O=C(Nc1ccc(-n2ccccc2=O)cn1)[C@H]1C[C@](O)(c2ccc(F)cc2F)CN1C(=O)Nc1ccc(Cl)cc1", "half-life (h)": 7.3}
{"Smiles Record": "O=C(Nc1ccc(-n2ccccc2=O)cn1)[C@H]1C[C@](O)(c2ccccc2Cl)CN1C(=O)Nc1ccc(Cl)cc1", "half-life (h)": 0.8}
{"Smiles Record": "O=C(Nc1ccc(-n2ccccc2=O)cn1)[C@H]1C[C@](O)(c2ccc(F)c(F)c2)CN1C(=O)Nc1ccc(Cl)cc1", "half-life (h)": 2.1}
{"Smiles Record": "O=C(Nc1ccc(-n2ccccc2=O)cn1)[C@H]1C[C@](O)(c2ccccc2)CN1C(=O)Nc1ccc(Cl)cc1", "half-life (h)": 2.9}

API: the following record is the query input.
Problem: For the compound O=C(Nc1ccc(-n2ccccc2=O)cn1)[C@H]1C[C@](O)(c2ccccc2C(F)(F)F)CN1C(=O)Nc1ccc(Cl)cc1 , give its measured half-life value.
Solution: 1
